Origin of measurements: paper PMC13206195

Reported AUC(0-t) by item:
experiment: Plasma pharmacokinetics (non-compartmental analysis) in open-label, fixed-sequence, 2-way crossover study in healthy participants; conditions: human, in vivo, po, AUClast, Geometric mean, Visit 2 (Day 8): 30 mg CBD oral 1 h prior to 25 mg amitriptyline + 50 mg tramadol, fasted; plasma; N=12
Please respond with the number in ng·h/mL and leave the unit unwritten.

COc1cccc(C2(O)CCCCC2CN(C)C)c1 (centres unmarked) : 1150

Below: the item to evaluate.
Ask | Look up and state reported AUC(0-t) for C=C(C)[C@@H]1CCC(C)=C[C@H]1c1c(O)cc(CCCCC)cc1O
Reply | 5.3
